Readings of melting point for the listed compounds
reported-endpoint: melting point

| compound | reported-endpoint | measured-result |
| --- | --- | --- |
| CN(C)CCn1ccc2cc(NS(=O)(=O)c3ccc([N+](=O)[O-])cc3)ccc21 [Example 25e] | melting point | 60 to 64 °C |
| CCn1c2ccccc2c2cc(NC(=O)CN3CCC(N4C(=O)OCc5cc(C)ccc54)CC3)ccc21.Cl | melting point | 247 to 252 °C |
| Cc1cccc2c1N(C1CCN(CC(=O)Nc3ccc4c(c3)-c3ccccc3C4=O)CC1)C(=O)OC2.Cl | melting point | 233 to 236 °C |
| CN(C)CCn1ccc2cc(NS(=O)(=O)c3cc(Cl)c(Cl)s3)ccc21 [Example 20e] | melting point | 120 to 123 °C |
| CN1CC=C(c2cn(S(=O)(=O)C3CCCCC3)c3ccc(Cl)cc23)CC1 [Example 2h] | melting point | 88 to 90 °C |
| Cc1ccc(S(=O)(=O)Nc2ccc3c(ccn3CCN(C)C)c2)cc1 [Example 8e] | melting point | 126 to 128 °C |
| Cl.O=C(CN1CCC(N2C(=O)OCc3ccccc32)CC1)Nc1ccc2c(c1)-c1ccccc1C2=O [Example 3a] | melting point | > 275 °C |
| CN(C)CCn1ccc2cc(NS(=O)(=O)/C=C/c3ccccc3)ccc21 | melting point | 108 to 111 °C |
| Cl.O=C(CN1CCC(N2C(=O)OCc3ccccc32)CC1)Nc1cccc(C(=O)c2ccccc2)c1 | melting point | 214 to 218 °C |

These measurements were taken from patent US20070059364A1.
